The measured values listed here are drawn from ChEMBL document CHEMBL2203185.

- STUDY_TARGET: Neuropeptide FF receptor 2 (Homo sapiens, UniProt Q9Y5X5)
- Sequence (Q9Y5X5 whole entry): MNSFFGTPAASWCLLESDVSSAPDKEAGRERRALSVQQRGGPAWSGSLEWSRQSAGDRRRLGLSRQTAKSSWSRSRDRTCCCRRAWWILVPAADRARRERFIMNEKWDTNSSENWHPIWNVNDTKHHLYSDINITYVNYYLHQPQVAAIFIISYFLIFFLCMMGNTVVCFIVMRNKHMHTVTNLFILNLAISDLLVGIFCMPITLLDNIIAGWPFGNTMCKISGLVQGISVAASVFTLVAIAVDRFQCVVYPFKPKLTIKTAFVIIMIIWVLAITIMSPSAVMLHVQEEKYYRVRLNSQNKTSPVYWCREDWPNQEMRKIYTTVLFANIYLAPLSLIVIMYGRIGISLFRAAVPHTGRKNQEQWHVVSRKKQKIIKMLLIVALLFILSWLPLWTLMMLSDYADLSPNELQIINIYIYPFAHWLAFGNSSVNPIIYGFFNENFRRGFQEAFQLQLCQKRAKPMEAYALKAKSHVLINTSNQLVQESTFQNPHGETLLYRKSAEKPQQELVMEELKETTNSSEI
- TEST_PROTOCOL: Displacement of [3H]FFRF-NH2 from human flag-tagged NPFF2 receptor expressed in CHO cells at 500 nM by scintillation counting
- Type: cell-based
ENDPOINT_NAME: inhibition (%)

In [3]: df
Out[3]:
                              line_notation                              study_target  scale_unit  observed_value
0  N=C(N)NCCC[C@H](NC(=O)c1cc2ccccc2[nH]1)C(=O)N[C@@H](Cc1ccccc1)C(N)=O  Neuropeptide FF receptor 2 (Homo sapiens, UniProt Q9Y5X5)           %              35
1  N=C(N)NCCC[C@H](NC(=O)Cc1ccccc1)C(=O)N[C@@H](Cc1ccccc1)C(N)=O  Neuropeptide FF receptor 2 (Homo sapiens, UniProt Q9Y5X5)           %               5
2  N=C(N)NCCC[C@H](NC(=O)c1ccc2cc[nH]c2c1)C(=O)N[C@@H](Cc1ccccc1)C(N)=O  Neuropeptide FF receptor 2 (Homo sapiens, UniProt Q9Y5X5)           %              38
3  N=C(N)NCCC[C@H](NC(=O)c1c(Cl)cccc1Cl)C(=O)N[C@@H](Cc1ccccc1)C(N)=O  Neuropeptide FF receptor 2 (Homo sapiens, UniProt Q9Y5X5)           %               0
4  N=C(N)NCCC[C@H](NC(=O)C12CC3CC(CC(C3)C1)C2)C(=O)N[C@H](Cc1ccccc1)C(N)=O  Neuropeptide FF receptor 2 (Homo sapiens, UniProt Q9Y5X5)           %               4
5  CC(C)(C)C(=O)N[C@@H](CCCNC(=N)N)C(=O)N[C@@H](Cc1ccccc1)C(N)=O  Neuropeptide FF receptor 2 (Homo sapiens, UniProt Q9Y5X5)           %              38
6  N=C(N)NCCC[C@H](NC(=O)C(c1ccccc1)c1ccccc1)C(=O)N[C@@H](Cc1ccccc1)C(N)=O  Neuropeptide FF receptor 2 (Homo sapiens, UniProt Q9Y5X5)           %               0
7  N=C(N)NCCC[C@H](NC(=O)CCC(=O)O)C(=O)N[C@@H](Cc1ccccc1)C(N)=O  Neuropeptide FF receptor 2 (Homo sapiens, UniProt Q9Y5X5)           %               0
